Target: Dipeptidyl peptidase 1 (Homo sapiens)
Sequence (P53634 25-134 limits assumed): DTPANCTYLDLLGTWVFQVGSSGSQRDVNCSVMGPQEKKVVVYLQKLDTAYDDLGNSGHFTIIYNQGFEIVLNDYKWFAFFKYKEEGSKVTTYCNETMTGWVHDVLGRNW
Sequence (P53634 231-394 limits assumed): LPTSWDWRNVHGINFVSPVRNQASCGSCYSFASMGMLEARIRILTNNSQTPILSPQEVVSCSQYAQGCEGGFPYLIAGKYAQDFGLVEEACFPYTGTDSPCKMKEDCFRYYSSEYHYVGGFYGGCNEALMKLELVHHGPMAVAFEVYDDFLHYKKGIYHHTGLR
Sequence (P53634 395-463 limits assumed): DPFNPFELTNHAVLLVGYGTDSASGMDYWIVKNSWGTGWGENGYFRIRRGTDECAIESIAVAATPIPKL
Test: Inhibition of human Cathepsin C using Gly-Phe-paranitroanilide as substrate incubated for 12 mins
assay.endpoint: pIC50
Conceptually, pIC50 converts a concentration in mol/L into minus its log10.

For CC[C@H](N)C(=O)N[C@]1(C#N)C[C@@H]1c1ccc(-c2ccc(S(=O)(=O)N3CCN(C)CC3)cc2)cc1 , what is its reported pIC50?
7.82

---

Target: Dipeptidyl peptidase 1 (Homo sapiens)
Test: Inhibition of human Cathepsin C using Gly- L -Phe-p-nitroanilide.HCl as substrate
assay.endpoint: IC50 (µM)
Please respond with the number in µM and leave the unit unwritten.

I'm curious: which IC50 was measured for CC(C)CC(NC(=O)CN)P(=O)(O)CCC(=O)O (stereo unspecified) tested on Dipeptidyl peptidase 1 (Homo sapiens)?
39
